Experimental System: T1, human CD112R antigen protein huCD112R-His (Acro Biosysterm, PVG-H52H4) (human, UniProt Q6DKI7 41-171)
T1 construct: purchased; also called human antigen protein; not shown: His tag
T1 sequence (looked up): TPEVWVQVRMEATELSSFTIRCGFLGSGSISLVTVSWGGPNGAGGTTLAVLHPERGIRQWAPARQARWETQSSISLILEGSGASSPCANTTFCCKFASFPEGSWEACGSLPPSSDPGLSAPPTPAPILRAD
Experiment Summary: SPR (Biacore X100), antibody captured on Protein A chip, huCD112R-His as analyte, 1:1 Langmuir
Reported Property: Kd (pM)
Numeric only. Scale: pM

Below are worked cases with known answers.
C3 (antibody, human IgG1, kappa, V domains shown) VH: QVQLQQSGPELVKPGASVKISCRSSGYTFTDYYINWVKQRPGQGLEWIGWIFPGSDYTYYNEKFKGKATLTVDKSSTTAYMLLSSLTSEDSAVYFCARDGGLRGPFDYWGQGTTLTVSS VL: DIQMTQSPSSLSASLGGKVTITCKASQDINKYIAWYQQKPGKGPRLLIHYTSTLQPGIPSRFSGSGSGRNSSFSISNLEPEDIATYYCLQYDNLHTFGGGTKLEIKR = 181
anti-CD112R antibody CHA.7.518 (antibody, V domains shown, synthesised according to WO/2016/134333; also called Tab-1; Tab 1) VH: QVQLVQSGAEVKKPGASVKVSCKASGYTFTDYNINWVRQAPGQGLEWMGYIYPYIGGSGYAQKFQGRVTMTRDTSTSTVYMELSSLRSEDTAVYYCAREDKTARNAMDYWGQGTLVTVSS VL: DIQMTQSPSSLSASVGDRVTITCRVSENIYSNLAWYQQKPGKAPKLLIYEATNLAEGVPSRFSGSGSGTDFTLTISSLQPEDFATYYCQHFWGTPYTFGQGTKLEIKR = 346

Now let's try a different one.
Return Kd for the following binder: C41 (antibody, human IgG1, kappa, V domains shown) VH: EVQLQQSGPELVKPGASVKISCKASGNTFTDYYINWVKQSHGKSLEWIGDIEPNNGGTNYNQKFKGKATLTVDKSSSTAYMELRSLTSEDSAIYYCATLYFDYWGQGTTLTVSS VL: DIVMTQSPSSLSVSAGEKVTMSCKSSQSLLNSGNQKNYLAWYQQKPGQPPKLLIYGASTRESGVPDRFTGSGSGTDFTLTISSVQAEDLAVYYCQNDHSYPFTFGSGTKLEIKR
22
